Collected set of log10 of Ki measured with UniProt P25103 across studies.
Sequence (P25103 whole entry): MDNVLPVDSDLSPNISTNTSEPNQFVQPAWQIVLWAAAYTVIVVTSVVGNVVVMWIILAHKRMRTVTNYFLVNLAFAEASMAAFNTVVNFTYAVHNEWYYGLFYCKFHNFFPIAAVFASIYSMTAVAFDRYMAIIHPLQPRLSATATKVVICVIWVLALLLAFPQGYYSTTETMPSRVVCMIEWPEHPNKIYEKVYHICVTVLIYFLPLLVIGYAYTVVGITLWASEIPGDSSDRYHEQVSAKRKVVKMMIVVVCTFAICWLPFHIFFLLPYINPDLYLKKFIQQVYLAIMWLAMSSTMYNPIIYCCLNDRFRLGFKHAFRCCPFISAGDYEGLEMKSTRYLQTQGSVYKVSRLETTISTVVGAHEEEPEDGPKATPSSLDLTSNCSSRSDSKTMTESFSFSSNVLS
MEASURED_ENDPOINT: log10 of Ki (log10 of the value in nM)

MOLECULE | log10 of Ki
CCN(CCO)c1cc(-c2ccccc2Cl)c(N(C)C(=O)C(C)(C)c2cc(C(F)(F)F)cc(C(F)(F)F)c2)cn1 | 0.53
Clc1cccc(COCC(c2ccccc2)N2CCNCC2)c1 (stereo not given) | 2.60
CN(C(=O)C(C)(C)c1cc(C(F)(F)F)cc(C(F)(F)F)c1)c1ccccc1-c1ccccc1 | 1.83
CO/N=C(\COCc1cc(C(F)(F)F)cc(C(F)(F)F)c1)C(CCN1CCC(N2CCC[C@H]2C(N)=O)CC1)c1ccc(Cl)c(Cl)c1 (stereo not given in full) | 1.11
Cc1ccccc1-c1cccnc1C(=O)N(C)Cc1cc(C(F)(F)F)cc(C(F)(F)F)c1 | 0.58
CO/N=C(\COCc1cc(C(F)(F)F)cc(C(F)(F)F)c1)C(CCN1CCN(CC(=O)N2CCC(NC(C)=O)C2)CC1)c1ccc(Cl)c(Cl)c1 (stereo not given) | 0.95
FC(F)(F)c1cc(COCC(c2ccc3ccccc3c2)N2CCNCC2)cc(C(F)(F)F)c1 (stereo not given) | 1.50
Cc1ccccc1C(COCc1cc(C(F)(F)F)cc(C(F)(F)F)c1)N1CCNCC1 (stereo not given) | 0.00
CSCC[C@H](NC(=O)[C@H](CC(C)C)NC(=O)[C@@H]1CCCN1C(=O)[C@H](Cc1ccccc1)NC(=O)[C@H](Cc1ccccc1)NC(=O)[C@H](CCC(N)=O)NC(=O)[C@H](CCC(N)=O)NC(=O)[C@@H]1CCCN1C(=O)[C@H](CCCCN)NC(=O)[C@@H]1CCCN1C(=O)[C@@H](N)CCCN=C(N)N)C(N)=O | 0.04
CC(=O)N1CCN([C@H]2CCN(C(=O)N(C)Cc3cc(C(F)(F)F)cc(C(F)(F)F)c3)[C@@H](c3ccc(F)cc3C)C2)CC1 | -0.93
NCCCCCOC[C@H]1O[C@@H](OCCc2c[nH]c3ccccc23)[C@H](OCc2ccccc2)[C@@H](OCc2ccccc2)[C@@H]1OCc1ccccc1 | 2.18
CNC(c1ccccc1)C1(NCc2ccccc2OC)CC1 (stereo not given) | 2.18
CC(C)=CCc1cc(C(O)C2NC(=O)CNC(=O)[C@H](C(C)C)NC(=O)CNC(=O)[C@@H]3CCCN3C(=O)[C@@H](Cc3c[nH]c4ccccc34)NC(=O)CNC2=O)ccc1O (stereo not given in full) | 3.90
COc1ccc(F)cc1CN[C@H]1CCCN[C@H]1c1ccccc1 | -0.80
CN(Cc1ccccc1)C(=O)[C@@H](NC(=O)[C@@H]1CCCN1C(=S)NCc1ccccc1Cl)C(c1ccccc1)c1ccccc1 | 1.47
COc1ccc(-n2nnnc2C2CC2)cc1CN[C@H]1CCCN[C@H]1c1ccccc1.Cl.Cl | -1.10
CN(Cc1ccccc1)C(=O)[C@H](Cc1ccc2ccccc2c1)NC(=O)[C@@H]1CCCN1C(=O)Nc1ccccc1C(F)(F)F | 1.26
CC1c2ccccc2N(C)C(=O)CN1C(=O)N(C)Cc1cc(C(F)(F)F)cc(C(F)(F)F)c1 (stereo not given) | 3.00
C[C@H](OC[C@H](c1ccccc1)N1CCN(CC(=O)O)CC1)c1cc(C(F)(F)F)cc(C(F)(F)F)c1 | 0.10
CO/N=C(\COc1cc(C(F)(F)F)cc(C(F)(F)F)c1)C(CCN1CCC(O)(c2ccccc2)CC1)c1ccc(Cl)c(Cl)c1 (stereo not given) | 1.91
